This collection of values is drawn from patent US20180371066A1.

biological target: T1, human tau (human, UniProt P10636 2-60); test: competition ELISA on plate-coated human tau against biotinylated HJ8.5; IC50 normalised to chimeric HJ8.5; column C2N Run 2
T1 construct: also called soluble human tau; human tau protein
T1 sequence (P10636 2-60 limits assumed): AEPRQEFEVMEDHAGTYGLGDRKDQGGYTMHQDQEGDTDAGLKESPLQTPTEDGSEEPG
endpointName: IC50 (Relative to Chimera)

Recorded IC50 (Relative to Chimera), per entry:
{"binder": "VH4/VK3 (antibody, human IgG4 S228P, kappa, V domains shown, humanized HJ8.5 variant, combination of VH4 and VK3) VH: EVQLVESGGGLVQPGGSLKLSCVVSGFTFSNYWVNWVRQAPGKGLEWVAQIRLKSDNYATHYEESVKGRFTISRDDSKNSLYLQMNSLRAEDTAIYYCTNWEDYWGQGTTVTVSS VL: DIVLTQSPDSLAVSLGERATISCRASQSVSTSRYSYIHWYQQKPGQPPKLLIKYASNLESGVPSRFSGSGSGTDFTLTISSLQPEDFATYYCHHSWEIPLTFGQGTKLEIKR", "valueMeasured": "1.9 relative to Chimera"}
{"binder": "murine anti-tau antibody HJ8.5 (antibody, V domains shown, Murine monoclonal antibody; also called parent antibody; murine parent) VH: EVKVEESGGGLVQPGGSMKLSCVVSGFTFSNYWVNWVRQSPEKGLEWVAQIRLKSDNYATHYEESVKGRFTISRDDSKSSVYLQMNNLRAEDSGIYYCTNWEDYWGQGTTLTVSS VL: DIVLTQSPASLAVSLGQRATISCRASQSVSTSRYSYIHWYQQKPGQPPKLLIKYASNLESGVPARFSGSGSGTDFTLNIHPLEEEDAATYYCHHSWEIPLTFGAGTKLELK", "valueMeasured": "0.99 relative to Chimera"}
{"binder": "VH3/VK2 humanized anti-tau antibody (antibody, human IgG4 S228P, kappa, V domains shown, Humanized variant of HJ8.5) VH: EVQVVESGGGLVQPGGSLKLSCVVSGFTFSNYWVNWVRQAPGKGLEWVAQIRLKSDNYATHYEESVKGRFTISRDDSKNSVYLQMNSLRAEDTAIYYCTNWEDYWGQGTTVTVSS VL: DIVLTQSPDSLAVSLGERATISCRASQSVSTSRYSYIHWYQQKPGQPPKLLIKYASNLESGVPSRFSGSGSGTDFTLNIHPLEPEDFATYYCHHSWEIPLTFGQGTKLEIKR", "valueMeasured": "1.28 relative to Chimera"}

What does the record list as IC50 (Relative to Chimera) for VH1/VK1 (antibody, human IgG4 S228P, kappa, V domains shown, humanized HJ8.5 variant, combination of VH1 and VK1) VH: EVKVVESGGGLVQPGGSMKLSCVVSGFTFSNYWVNWVRQAPGKGLEWVAQIRLKSDNYATHYEESVKGRFTISRDDSKSSVYLQMNNLRAEDSGIYYCTNWEDYWGQGTTVTVSS VL: DIVLTQSPDSLAVSLGERATISCRASQSVSTSRYSYIHWYQQKPGQPPKLLIKYASNLESGVPSRFSGSGSGTDFTLNIHPLEEEDFATYYCHHSWEIPLTFGQGTKLEIKR ?
1.11 relative to Chimera
